Property: log10 T1/2α; scope: individual compounds
# assay_text: Pharmacokinetics in rat plasma after oral administration of SF-CS and SP-CS extracts (HPLC-MS/MS)
# Assay type: in vivo, Male Sprague-Dawley rats
# cond: rat plasma, oral SP-CS extract (B) 2.2 g kg^-1, n = 10, mean ± SD
endpoint_label: log10 T1/2α (log10 of the value in min)

1. O=C(O)/C=C/c1ccc(O)cc1 : 1.92
2. O=c1c(O[C@@H]2O[C@H](CO)[C@@H](O)[C@H](O)[C@H]2O)c(-c2ccc(O)cc2)oc2cc(O)cc(O)c12 : 0.78
3. O=c1c(O[C@@H]2O[C@H](CO)[C@H](O)[C@H](O)[C@H]2O)c(-c2ccc(O)c(O)c2)oc2cc(O)cc(O)c12 : 1.44
4. O=C(/C=C/c1ccc(O)c(O)c1)O[C@@H]1C[C@@](O)(C(=O)O)C[C@@H](O)[C@@H]1O : 2.30
5. O=C(/C=C/c1ccc(O)c(O)c1)O[C@@H]1C[C@](O)(C(=O)O)C[C@@H](O)[C@H]1O : 1.70

Provenance of the data: paper PMC6651454
